Test system: NCI/ADR-RES ovarian
test.method.notes: NCI tumour cell line growth inhibition, 48 h
measured.parameter: TGI (µM)
Give just the number in µM; leave the unit off.

In: Consider the compound shown here: `CN(C)c1cc2c(cc1Sc1nc3c(N)nccc3n1CCNCC(C)(C)C)OCO2` What is its recorded TGI?
Out: 24.7

In: Proceed to `NCC(=O)Nc1ccc(-n2nc(C(F)(F)F)cc2-c2ccc3c(ccc4ccccc43)c2)cc1`
Out: 3.12

In: Now give it for `Cc1nc2ccc(N=Nc3c(O)ccc4ccccc34)cc2[nH]1` too.
Out: 60.2

In: Try `COC(=O)c1c2c(c[n+]([O-])c1C)C(=O)C(NCc1ccccc1)=CC2=O` next.
Out: 1.37

In: Another compound: CC(/C=C/C=C/C=C/C=C/C=C/C(O)=C1/C(=O)C(CCC(=O)O)N(C)C1=O)=C\C(C)C(OC1CC(O)C(O)C(C)O1)C(C)C (stereo not given)
Out: 50.2

In: Now consider CC(C)(C)C1CCC2c3c([nH]c4ccccc34)C3C(=O)N(c4cccc(Cl)c4)C(=O)C3C2C1 (stereo not given) .
Out: 34

In: Same thing, different compound: CC(Br)C(=O)c1ccc2cc(Br)c3ccccc3c2c1 (stereo not given)
Out: 35

In: Next up: `Cc1cc(C)c2c(=O)n(CN3CCN(c4ccccc4)CC3)sc2n1`
Out: 52.7

In: Please do the same for `Cc1nc(NC(=O)COc2cccc(/C=C3\COc4ccccc4C3=O)c2)sc1C` as well.
Out: 9.79

In: Likewise for CCOC(=O)C(Cc1ccc(OC(=O)c2ccc(OC)cc2OC)cc1)NC(=O)C(F)(F)F (stereo not given) ?
Out: 79.4

---

System: T-47D breast
test.method.notes: NCI tumour cell line growth inhibition, 48 h
# cutoff 70 µM applies to TGI; >= gives rule met, < gives rule not met

In: API: above_or_equal(metric=TGI, cutoff=70 µM) for item OCC1C(O)C(O)[C@@H]2SCCN12 (some centres not stated)
Out: rule met

In: Also need `C[C@H](Nc1ccc(C#N)n(C)c1=O)c1cc2cc(Cl)ccc2[nH]c1=O` , thanks.
Out: rule met

In: Follow-up entry: `COc1cc(/C=C2\N=C(c3ccccc3)N(c3nc4c(Cl)cc(Cl)cc4s3)C2=O)ccc1O`
Out: rule met

In: Same question, `C[C@]1(O)CC(=O)c2c(c(-c3ccc4cc5c(c(O)c4c3O)C(=O)C[C@@](C)(O)C5)c3cccc(O)c3c2O)C1` this time
Out: rule not met

In: What would you report for `O=C(COC(c1ccc(F)cc1)c1ccc(F)cc1)N1CCN(CCCc2ccccc2)CC1` ?
Out: rule not met

In: Next compound up: `CC(C)=CCC/C(C)=C/CC/C(C)=C/[C@@H]1[C@@H](CO)[C@]1(C)CC/C=C(\C)CCC=C(C)C`
Out: rule met

In: And `NCCCCN` ?
Out: rule met

In: Same thing, different compound: `O=C(CSc1nc2ccc(Cl)cc2c(=O)n1-c1ccccc1)N=Nc1c(O)[nH]c2ccc(F)cc12`
Out: rule not met

In: Try the compound NC(Cc1cc(Br)c(O)c(Br)c1)C(=O)O (configuration not stated)
Out: rule met

In: Param item: CC(C)c1ccc2c(c1)[C@@]1(C)CC[C@H](C)C(C)(C)C1CC2 (some centres not stated)
Out: rule not met

In: And the next one, `CN(C)S(=O)(=O)n1ccnc1` ?
Out: rule met

In: And for `O=c1oc2ccccc2c(-c2ccc(O)cc2)c1Oc1ccc(Cl)cc1` ?
Out: rule met

In: // next record `O=c1oc2c(Br)c(O)c(Br)cc2c2ccccc12`
Out: rule met

In: Do the same for `O=C(/C=C/c1ccccc1O)c1ccccc1` please
Out: rule not met

In: Same read-out for `CCOC(=O)c1ccc(-c2cccs2)n1C` ?
Out: rule met

In: Item: COC(OC)C1(c2ccccc2)Oc2ccccc2C1=O (configuration not stated)
Out: rule met

In: Check C/C=C1/CN2CCC34C5=CC(=O)C(c6cc7c(cc6OC)N(C)C6=C(C(=O)OC)CC8(CC)CCCN9CCC67C98)=CC5=NC23CCC1C4C(=O)OC (configuration not stated) too.
Out: rule not met

In: Another compound to look at: CC(Br)C(=O)c1ccc2cc(Br)c3ccccc3c2c1 (configuration not stated)
Out: rule not met

In: Repeat for the following compound: `CCOC(=O)CC/C(C)=N\n1c(Cc2ccc(Cl)cc2)n[nH]c1=O`
Out: rule met

In: Also need `CSc1c(C#N)c(O)n(-c2ccc(Cl)cc2)c(=O)c1C#N` , thanks.
Out: rule met

In: Moving on to the next compound: `Nc1ccc(-c2nc3cc(F)ccc3s2)cc1Br`
Out: rule met
